Origin of values: ChEMBL document CHEMBL4513216

Please respond with reported INHIBITION for every item in the list.
Test system: Plasmodium berghei
method summary: Screen against P. berghei liver stage (PbLuc), transformed with Luciferase, at 10uM
Format: functional, HepG2
settings: tested at 10 uM
About 8,600 (12%) of roughly 69,000 compounds showed an effect of 50% or more. Many of the other results were omitted from the sample, so strong results are more common in it than they were.
Numeric only. Scale: %

Challenge: Report INHIBITION for CCc1ccc(CN(CCN(C)C)Cc2ccc(C)s2)nc1
Response given: 22

Challenge: Report INHIBITION for COCc1csc(NC(=O)N2CCC(Cc3cnn(C)c3)C2)n1 (stereo not given)
Response given: -27.8

Challenge: Report INHIBITION for CS(=O)(=O)c1ccccc1NC(=O)N[C@@H]1c2ccccc2C[C@@H]1O
Response given: 35

Challenge: Report INHIBITION for CCc1ncc(C(=O)c2ccc(OC)cc2)n1C
Response given: 54.2

Challenge: Report INHIBITION for COCc1ncc(CN(CCN(C)C)Cc2ccc(C)s2)cn1
Response given: 38.7

Challenge: Report INHIBITION for CCN(Cc1noc(CC(C)C)n1)Cc1ccccc1C
Response given: 42.4

Challenge: Report INHIBITION for CCN(Cc1noc(CC(C)C)n1)Cc1ncccc1C(=O)O
Response given: 35.9

Challenge: Report INHIBITION for CCN(Cc1noc(CC(C)C)n1)Cc1ccccc1Cl
Response given: 50.8

Challenge: Report INHIBITION for NS(=O)(=O)CC1CCCN1CCOc1ccccc1F (stereo not given)
Response given: 37.9

Challenge: Report INHIBITION for CCNc1ncc(CN(CCN(C)C)Cc2ccc(C)s2)cn1
Response given: 35

====

Test system: Plasmodium berghei
method summary: Screen against P. berghei liver stage (PbLuc), transformed with Luciferase, at 10uM
Type: functional, HepG2
settings: tested at 10 uM
Hit rate of the full screen: of about 69,000 compounds, about 8,600 (12%) showed an effect of 50% or more. The sample as a whole holds a higher share of strong results than the screen did.
Friendly reminder: INHIBITION below 10% is 1.0, at or above is 0.0.

Challenge: Identify whether the compound c1ccc2sc(N3CCCC(Cn4cncn4)C3)nc2c1 (configuration not stated) records INHIBITION below 10%.
Response given: 0.0

Challenge: Identify whether the compound COc1ccc(C(=O)N2C[C@@H](O)[C@H](NCc3ncccc3C)C2)cc1 records INHIBITION below 10%.
Response given: 0.0

Challenge: Identify whether the compound CN(CC(O)C(F)(F)F)C(=O)Nc1cccc(Cn2cccn2)c1 (configuration not stated) records INHIBITION below 10%.
Response given: 0.0

Challenge: Identify whether the compound COc1cc(N2C[C@H]3CC[C@@H](C2)N(CC2CCC2)C3=O)ncn1 records INHIBITION below 10%.
Response given: 1.0

Challenge: Identify whether the compound CC(C)n1cc(CN(Cc2ccc(F)cc2)CC2CCCO2)cn1 (configuration not stated) records INHIBITION below 10%.
Response given: 0.0

Challenge: Identify whether the compound c1nc(N2CCCCC2Cn2cncn2)c2sccc2n1 (configuration not stated) records INHIBITION below 10%.
Response given: 1.0

Challenge: Identify whether the compound CC(=O)NCCNC(=O)CN1CCOC(Cn2cccn2)C1 (configuration not stated) records INHIBITION below 10%.
Response given: 1.0

Challenge: Identify whether the compound O=C(O)c1cn(CC2CCCN(c3nc4ccccc4s3)C2)nn1 (configuration not stated) records INHIBITION below 10%.
Response given: 0.0

Challenge: Identify whether the compound CSCc1cccc(S(=O)(=O)NCCO)c1 records INHIBITION below 10%.
Response given: 1.0

Challenge: Identify whether the compound CCn1ccnc1CN(C)C1CCCN(Cc2ccccc2F)C1 (configuration not stated) records INHIBITION below 10%.
Response given: 1.0

Challenge: Identify whether the compound CCc1ccccc1OCCNCCc1c[nH]cn1 records INHIBITION below 10%.
Response given: 0.0

Challenge: Identify whether the compound COCC1(NC(=O)C(c2ccc(F)cc2)N(C)C)CCCC1 (configuration not stated) records INHIBITION below 10%.
Response given: 0.0

Challenge: Identify whether the compound CN1CCOC(C)(C(=O)N2CCN(C3CCCC3)CC2)C1 (configuration not stated) records INHIBITION below 10%.
Response given: 0.0

Challenge: Identify whether the compound COCC1CN(c2ncc(F)cn2)Cc2cnn(C)c21 (configuration not stated) records INHIBITION below 10%.
Response given: 0.0

Challenge: Identify whether the compound O=C([C@H]1C[C@H]2[C@H](CCN2Cc2cccs2)O1)N1CCOCC1 records INHIBITION below 10%.
Response given: 0.0

Challenge: Identify whether the compound CCOc1ccccc1C1CCCN1 (configuration not stated) records INHIBITION below 10%.
Response given: 0.0

Challenge: Identify whether the compound CCc1ncc2c(n1)CN(Cc1nc(-c3ccccn3)no1)CC2 records INHIBITION below 10%.
Response given: 0.0

====

Test system: Plasmodium berghei
method summary: Screen against P. berghei liver stage (PbLuc), transformed with Luciferase, at 10uM
Format: functional, HepG2
settings: tested at 10 uM
Screen size: about 69,000 compounds; about 8,600 (12%) showed an effect of 50% or more. The list comes from a sample in which strong results are over-represented; it also holds close analogues and randomly drawn compounds.
Friendly reminder: INHIBITION below 20% is 1, at or above is 0.

Challenge: Identify whether the molecule CN(Cc1ccccn1)C(=O)c1nc(S(C)(=O)=O)n2ccccc12 records INHIBITION below 20%.
Response given: 0

Challenge: Identify whether the molecule CC(CCc1ccccc1)NC(=O)CNCCCN1CCOCC1 (configuration not stated) records INHIBITION below 20%.
Response given: 0

Challenge: Identify whether the molecule CC(C)c1ncc2c(n1)CN(CC(=O)Nc1ccc(Cl)cn1)CC2 records INHIBITION below 20%.
Response given: 1

Challenge: Identify whether the molecule c1ccc(NCc2ccc(Cn3ccnc3)cc2)nc1 records INHIBITION below 20%.
Response given: 1

Challenge: Identify whether the molecule CNC(=O)c1cccnc1NCc1ccc(-n2cccn2)cc1 records INHIBITION below 20%.
Response given: 0

Challenge: Identify whether the molecule CCCn1ncc2c(C(=O)Nc3n[nH]c(SC)n3)cc(C3CC3)nc21 records INHIBITION below 20%.
Response given: 0

Challenge: Identify whether the molecule CNc1nc(C(=O)N2CCCN(c3ccnc(C)c3)CC2)cs1 records INHIBITION below 20%.
Response given: 1

Challenge: Identify whether the molecule COc1ccnc(N2CCN(C(=O)c3csc(C)n3)CC2)n1 records INHIBITION below 20%.
Response given: 1

Challenge: Identify whether the molecule CC(CCc1ccccc1)NC(=O)CNCCCN(C)C (configuration not stated) records INHIBITION below 20%.
Response given: 0

Challenge: Identify whether the molecule COc1ncccc1CNC(=O)NCCNS(C)(=O)=O records INHIBITION below 20%.
Response given: 1

Challenge: Identify whether the molecule CCCn1ncc2c(C(=O)Nc3cnn(CC)c3C)cc(C3CC3)nc21 records INHIBITION below 20%.
Response given: 1

Challenge: Identify whether the molecule O=C(CC1C=CCC1)N1CCc2ncnc(NCc3ccon3)c2CC1 (configuration not stated) records INHIBITION below 20%.
Response given: 0

Challenge: Identify whether the molecule CN(CC(=O)Nc1cc(CC2CCCCC2)n[nH]1)S(C)(=O)=O records INHIBITION below 20%.
Response given: 1

Challenge: Identify whether the molecule CCCC(O)CN1CC(C)(C)CN(C(=O)c2ccc(SC)cc2)CC1=O (configuration not stated) records INHIBITION below 20%.
Response given: 0

Challenge: Identify whether the molecule CCc1cc(O)n2nc(C3CCN(C(=O)c4ccncc4)CC3)cc2n1 records INHIBITION below 20%.
Response given: 0

Challenge: Identify whether the molecule CN(C)S(=O)(=O)N1CCN(Cc2ccnc(N3CCCC3)n2)CC1 records INHIBITION below 20%.
Response given: 1

Challenge: Identify whether the molecule CNC(=O)c1cccnc1NCc1ccc(Cn2cccn2)cc1 records INHIBITION below 20%.
Response given: 0

Challenge: Identify whether the molecule Cc1cccc2nc(C(=O)N3CCCC[C@]4(C)NC(=O)CC[C@H]34)cn12 records INHIBITION below 20%.
Response given: 0

Challenge: Identify whether the molecule COCCOc1ccccc1CNCC1COC2(CCCC2)O1 (configuration not stated) records INHIBITION below 20%.
Response given: 0

Challenge: Identify whether the molecule O=C(Cc1ccccn1)N1CCC(O)(Cn2ccc3ccncc32)CC1 records INHIBITION below 20%.
Response given: 1

Challenge: Identify whether the molecule O=c1ccc2c(n1Cc1cccnc1)CCN(CC1CCOC1)CC2 (configuration not stated) records INHIBITION below 20%.
Response given: 1

Challenge: Identify whether the molecule CO[C@@H]1CC[C@H]2[C@H]1OCCN2CCOCc1ccccc1 records INHIBITION below 20%.
Response given: 1

Challenge: Identify whether the molecule CC(=O)c1cnc(NCCN2CCCC(c3ccccc3)C2)nc1C (configuration not stated) records INHIBITION below 20%.
Response given: 0

Challenge: Identify whether the molecule O=C(COc1cccc2c1CCC2=O)NCCc1cccs1 records INHIBITION below 20%.
Response given: 0

Challenge: Identify whether the molecule COc1cccc(-c2ccc3nc(C4CCN(C(C)=O)CC4)nn3c2)c1 records INHIBITION below 20%.
Response given: 0

Challenge: Identify whether the molecule CCn1cc(C(=O)Nc2ccccc2C(=O)OC)cn1 records INHIBITION below 20%.
Response given: 0

Challenge: Identify whether the molecule Cc1ncc2c(n1)CN(CC(=O)Nc1ccc(Cl)cn1)CC2 records INHIBITION below 20%.
Response given: 0

Challenge: Identify whether the molecule COCc1nn(C(C)C)c2c1CCN(Cc1cccs1)C2 records INHIBITION below 20%.
Response given: 0

Challenge: Identify whether the molecule CN(CC(O)COc1ccc(C(F)(F)F)cc1)C(=O)Nc1nncs1 (configuration not stated) records INHIBITION below 20%.
Response given: 1

Challenge: Identify whether the molecule NC(=O)CC1CCCN(c2cncc(OCc3ccccc3)n2)C1 (configuration not stated) records INHIBITION below 20%.
Response given: 0

Challenge: Identify whether the molecule Fc1ccc2[nH]c3c(c2c1)CCN1C(c2ccncc2)N2CCC31CC2 (configuration not stated) records INHIBITION below 20%.
Response given: 1

Challenge: Identify whether the molecule Brc1ccc(NCc2ccc(Cn3ccnc3)cc2)nc1 records INHIBITION below 20%.
Response given: 1

Challenge: Identify whether the molecule CNc1nc(C(=O)N2C[C@@H]3CC[C@H]2CN(S(C)(=O)=O)C3)cs1 records INHIBITION below 20%.
Response given: 1

Challenge: Identify whether the molecule CC(CCc1ccccc1)NC(=O)CN1CCOCC1 (configuration not stated) records INHIBITION below 20%.
Response given: 0

Challenge: Identify whether the molecule CCCn1nccc1NC(=O)CN1CCc2c(nc(C(C)C)n2C)C1 records INHIBITION below 20%.
Response given: 1

Challenge: Identify whether the molecule CS(=O)(=O)c1ccccc1NCc1ccc(Cn2ccnc2)cc1 records INHIBITION below 20%.
Response given: 0

Challenge: Identify whether the molecule Fc1ccc(CN2CCCn3nnc(COCC4CC4)c3C2)cc1 records INHIBITION below 20%.
Response given: 0
